- System: HEK293
- Protocol description: Cytotoxicity against human HEK293 cells expressing sigma receptor after 48 hrs by MTT assay
- Assay type: cell-based
- Cond: HEK293, 48 h
Metric: pIC50
Please express pIC50 as -log10 of the molar concentration.

pIC50 value, target or system HEK293, for `CCCCCCCC[N+](C)(CCCCCCCC)CC(=O)NCCC(=O)OC1(c2ccc(Cl)cc2)CCN(CCCC(=O)c2ccc(F)cc2)CC1.[Cl-]` : 5.15

====

- Protocol description: Induction of apoptosis in human HEK293 cells expressing sigma receptor assessed as viable cells using annexin V/propidium iodide staining at 5 uM after 24 hrs by flow cytometry (reference value: 99.76%)
- Assay type: cell-based
- Cond: read-out: Activity
Metric: viability at 24 h, 5 µM (%)
Report only the number, with the unit % understood.

- CCCCCCCC[N+](C)(CCCCCCCC)CC(=O)NCCC(=O)OC1(c2ccc(Cl)cc2)CCN(CCCC(=O)c2ccc(F)cc2)CC1.[Cl-]: 99.6

Next item in the queue.
Per the record, O=C(CCCN1CCC(O)(c2ccc(Cl)cc2)CC1)c1ccc(F)cc1 [HALOPERIDOL] has viability at 24 h, 5 µM of 99.6

====

- System: COS-1
- Protocol description: Cytotoxicity against african green monkey COS1 cells expressing sigma receptor after 48 hrs by MTT assay
- Assay type: cell-based
- Cond: Chlorocebus aethiops, COS-1, 48 h
Metric: IC50 (µM)
Report only the number, with the unit µM understood.

Per the record, `CCCCCCCC[N+](C)(CCCCCCCC)CC(=O)NCCC(=O)OC1(c2ccc(Cl)cc2)CCN(CCCC(=O)c2ccc(F)cc2)CC1.[Cl-]` has IC50 of 7

====

- System: ZR-75-1
- Protocol description: Cytotoxicity against human ZR-75-1 cells expressing sigma receptor after 48 hrs by MTT assay
- Assay type: functional, cell-based
- Cond: ZR-75-1, 48 h
Metric: pIC50
Please express pIC50 as -log10 of the molar concentration.

pIC50 value, target or system ZR-75-1, for `CCCCCCCC[N+](C)(CCCCCCCC)CC(=O)NCCC(=O)OC1(c2ccc(Cl)cc2)CCN(CCCC(=O)c2ccc(F)cc2)CC1.[Cl-]` : 5.60
